Entry source: paper PMC10408732

target: rat α7 nAChR (Rattus norvegicus); assay: Two-electrode voltage clamp at rα7 nAChRs expressed in Xenopus laevis oocytes; format: cell-based; conditions: read-out: Inhibition IC50; rα7, agonist nicotine 25 µM
assayReadout: pIC50
Give bare numbers, as −log10 of the molar value.

pIC50 in this record for O=C1[O][Pt]2([NH][C@@H]3CCCC[C@H]3[NH]2)[O]C1=O [Oxaliplatin, reference compound] : 3.70

----------
molecular target: rat α7 nAChR (Rattus norvegicus); experiment: Two-electrode voltage clamp at rα7 nAChRs expressed in Xenopus laevis oocytes; type: cell-based
assayReadout: IC50 (µM)
Answers are plain numbers, in µM.

Lab note: Cc1ccc(N(C)C(=O)/C=C/c2ccco2)cc1 gave IC50 of 15.1

----------
molecular target: rat α7 nAChR (Rattus norvegicus, UniProt Q05941); assay: Two-electrode voltage clamp at rα7 nAChRs expressed in Xenopus laevis oocytes
Sequence (Q05941 23-502): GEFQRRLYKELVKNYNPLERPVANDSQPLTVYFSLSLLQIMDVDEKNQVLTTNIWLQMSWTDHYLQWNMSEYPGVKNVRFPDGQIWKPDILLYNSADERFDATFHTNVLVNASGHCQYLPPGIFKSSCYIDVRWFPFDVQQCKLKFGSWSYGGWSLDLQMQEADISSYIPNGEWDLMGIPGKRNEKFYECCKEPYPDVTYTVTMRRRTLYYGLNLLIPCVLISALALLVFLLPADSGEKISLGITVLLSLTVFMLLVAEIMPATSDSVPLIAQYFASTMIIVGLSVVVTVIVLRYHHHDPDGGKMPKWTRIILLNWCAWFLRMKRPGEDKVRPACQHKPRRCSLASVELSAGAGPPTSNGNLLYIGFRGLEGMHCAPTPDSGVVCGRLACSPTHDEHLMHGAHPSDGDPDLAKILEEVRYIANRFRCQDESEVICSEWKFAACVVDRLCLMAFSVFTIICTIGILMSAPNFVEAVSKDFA
assayReadout: EC50
Just the number plus its unit, please.

The molecule listed as Cc1ccc(NC(=O)/C=C/c2cccs2)cc1 shows EC50 equal to 86 µM

----------
biological target: rat α9α10 nAChR (Rattus norvegicus, UniProt P43144+Q9JLB5); assay: Two-electrode voltage clamp at rα9α10 nAChRs expressed in Xenopus laevis oocytes; type: cell-based; conditions: Inhibition IC50 (μM), rα9α10, agonist ACh 100 µM, −80 mV
Sequence (P43144 26-479): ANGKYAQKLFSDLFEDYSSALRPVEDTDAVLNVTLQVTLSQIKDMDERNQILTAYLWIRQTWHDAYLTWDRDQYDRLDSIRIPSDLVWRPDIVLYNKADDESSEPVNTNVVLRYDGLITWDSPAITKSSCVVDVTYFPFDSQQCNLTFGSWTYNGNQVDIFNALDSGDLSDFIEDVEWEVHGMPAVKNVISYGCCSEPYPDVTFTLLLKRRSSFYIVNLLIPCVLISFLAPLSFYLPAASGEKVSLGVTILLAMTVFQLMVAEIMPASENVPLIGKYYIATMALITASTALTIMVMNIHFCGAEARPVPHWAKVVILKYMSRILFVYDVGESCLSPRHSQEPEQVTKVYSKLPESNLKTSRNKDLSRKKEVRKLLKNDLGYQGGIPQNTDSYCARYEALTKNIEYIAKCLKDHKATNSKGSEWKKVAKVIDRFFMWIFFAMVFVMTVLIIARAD
Sequence (Q9JLB5 25-447): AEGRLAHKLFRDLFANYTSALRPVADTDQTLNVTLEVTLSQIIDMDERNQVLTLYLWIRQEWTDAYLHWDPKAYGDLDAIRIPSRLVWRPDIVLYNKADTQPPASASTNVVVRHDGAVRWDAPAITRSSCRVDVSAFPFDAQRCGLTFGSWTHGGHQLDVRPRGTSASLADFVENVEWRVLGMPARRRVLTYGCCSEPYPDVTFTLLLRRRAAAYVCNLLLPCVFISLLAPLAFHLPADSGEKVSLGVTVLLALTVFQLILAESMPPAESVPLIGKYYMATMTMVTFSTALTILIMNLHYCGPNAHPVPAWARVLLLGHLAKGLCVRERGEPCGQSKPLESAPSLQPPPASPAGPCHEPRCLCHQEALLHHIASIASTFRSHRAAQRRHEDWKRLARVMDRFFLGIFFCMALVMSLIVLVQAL
assayReadout: IC50 (µM)
Give bare numbers, in µM.

[
  {
    "smilesString": "Cc1ccc(N(C)C(=O)/C=C/c2ccco2)cc1",
    "assayedSystem": "rat α9α10 nAChR (Rattus norvegicus, UniProt P43144+Q9JLB5)",
    "IC50 / µM": 36
  }
]

# next compound below
The compound Cc1ccc(NC(=O)/C=C/c2cccs2)cc1 showed IC50 equal to 369
